Target: D(2) dopamine receptor (Rattus norvegicus, UniProt P61169)
Sequence (P61169 whole entry): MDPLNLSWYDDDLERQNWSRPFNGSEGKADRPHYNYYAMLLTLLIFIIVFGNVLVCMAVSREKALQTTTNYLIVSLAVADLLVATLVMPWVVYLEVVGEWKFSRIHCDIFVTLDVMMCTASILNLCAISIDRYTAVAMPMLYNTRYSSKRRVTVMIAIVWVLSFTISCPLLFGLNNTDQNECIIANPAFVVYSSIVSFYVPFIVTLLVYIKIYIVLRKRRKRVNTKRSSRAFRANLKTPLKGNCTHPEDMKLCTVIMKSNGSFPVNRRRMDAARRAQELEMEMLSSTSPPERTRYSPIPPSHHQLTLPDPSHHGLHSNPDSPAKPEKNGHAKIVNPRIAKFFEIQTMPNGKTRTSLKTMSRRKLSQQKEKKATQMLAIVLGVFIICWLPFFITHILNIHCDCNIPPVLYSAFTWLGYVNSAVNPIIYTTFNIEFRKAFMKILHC
Assay: biochemical
Description: Binding affinity to rat Dopamine receptor D2 expressed in CHO cells was determined using [125 I ] iodosulpride as radioligand
Measured Metric: pIC50
Give bare numbers, as −log10 of the molar value.

Worked cases, answers included:
INSERT INTO measurements (compound, recorded_number) VALUES
  ('COc1cccc2c1CCCC2CCCN1CCN(c2ccccc2)CC1 (stereo not drawn)', 6.96),
  ('COc1cccc2c1CCCC2CCCN1CCN(c2ccccn2)CC1 (stereo not drawn)', 6.85);

// switching to the query compound
What measured pIC50 is associated with CCCN(CCC)C1CCc2cccc(O)c2C1 (stereo not drawn) on D(2) dopamine receptor (Rattus norvegicus, UniProt P61169)?
8.28

// data source = ChEMBL document CHEMBL1129269
